These entries and their values trace back to ChEMBL document CHEMBL5143602.

System: Staphylococcus epidermidis
Test: Antibacterial activity against Staphylococcus epidermidis ATCC12228 assessed as inhibition of bacterial growth incubated for 18 hrs by two-fold serial dilution method
Format: functional
measuredQuantity: MIC

[
  {
    "testSmiles": "C=C[C@]1(C)C[C@@H](OC(=O)CO)[C@]2(C)[C@H](C)CC[C@]3(CCC(=O)[C@H]32)[C@@H](C)[C@@H]1O",
    "MIC": "16 µg/mL"
  }
]

Fill in: MIC of C=C[C@]1(C)C[C@@H](OC(=O)CNC(=S)NC2CCCCC2)[C@]2(C)[C@H](C)CC[C@]3(CCC(=O)[C@H]32)[C@@H](C)[C@@H]1O is ___ > 64 µg/mL

Fill in: MIC of C=C[C@]1(C)C[C@@H](OC(=O)CNC(=O)NC(=O)c2ccccc2F)[C@]2(C)[C@H](C)CC[C@]3(CCC(=O)[C@H]32)[C@@H](C)[C@@H]1O is ___ > 64 µg/mL

Fill in: MIC of C=C[C@]1(C)C[C@@H](OC(=O)CNC(=O)Nc2cccc(Br)c2)[C@]2(C)[C@H](C)CC[C@]3(CCC(=O)[C@H]32)[C@@H](C)[C@@H]1O is ___ > 64 µg/mL

Fill in: MIC of C=C[C@]1(C)C[C@@H](OC(=O)CNC(=O)NCCC)[C@]2(C)[C@H](C)CC[C@]3(CCC(=O)[C@H]32)[C@@H](C)[C@@H]1O is ___ > 64 µg/mL

Fill in: MIC of C=C[C@]1(C)C[C@@H](OC(=O)CNC(=O)Nc2ccc(Cl)cc2)[C@]2(C)[C@H](C)CC[C@]3(CCC(=O)[C@H]32)[C@@H](C)[C@@H]1O is ___ > 64 µg/mL
